B1: library; a variant is named by its letters at N, in order (parent)
chain: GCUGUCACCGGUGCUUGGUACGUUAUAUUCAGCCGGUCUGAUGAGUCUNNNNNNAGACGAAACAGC

- Variants of: B1
- experiment: FACS-Seq fitted mean relative fluorescence mCherry/BFP without ligand (log10 relative fluorescence); HEK293T overexpressing SLC46A1; higher = higher reporter protein expression
- assay-conditions: without (6R,S)-folinic acid; ligand present: no
Form field: FACS-Seq fitted mean (log10) (one value per entry).
No unit in the answer, only the number.

Worked examples follow.
1. GGACCG ... 0.438
2. GGUAAG ... 0.539

Task: Query: FACS-Seq fitted mean (log10); subject: "UGUUCC"
Output: 0.382

Task: Query: FACS-Seq fitted mean (log10); subject: "UUGAAA"
Output: 0.358

Task: Query: FACS-Seq fitted mean (log10); subject: "GCAUGA"
Output: 0.25

Task: Query: FACS-Seq fitted mean (log10); subject: "CUAUAG"
Output: 0.0808

Task: Query: FACS-Seq fitted mean (log10); subject: "AACUAC"
Output: 0.381

Task: Query: FACS-Seq fitted mean (log10); subject: "CGUCUA"
Output: -0.111

Task: Query: FACS-Seq fitted mean (log10); subject: "UUCUAA"
Output: 0.64

Task: Query: FACS-Seq fitted mean (log10); subject: "AACGCA"
Output: 0.404
